Lab note: pKi readings collected with human 5-HT5A receptor (Homo sapiens (Human), UniProt P47898) for the following molecules.
Sequence (P47898 whole entry): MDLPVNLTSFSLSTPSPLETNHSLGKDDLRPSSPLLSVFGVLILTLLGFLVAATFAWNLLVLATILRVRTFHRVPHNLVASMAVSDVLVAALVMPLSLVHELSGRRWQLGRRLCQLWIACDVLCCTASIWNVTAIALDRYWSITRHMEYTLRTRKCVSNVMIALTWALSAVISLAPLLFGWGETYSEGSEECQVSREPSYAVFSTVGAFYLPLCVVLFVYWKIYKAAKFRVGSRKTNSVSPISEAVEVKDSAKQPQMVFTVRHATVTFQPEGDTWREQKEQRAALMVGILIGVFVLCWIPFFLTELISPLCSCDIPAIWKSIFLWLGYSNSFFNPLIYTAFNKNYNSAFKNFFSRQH
pKi: −log10 of the molar value.
observed_property: pKi

{"columns": ["molecule", "observed_property", "recorded_number"],
 "data": [
  ["CC1CN(C(=O)N=C(N)N)Cc2c(-c3c(F)cccc3F)ccc(F)c21 (stereo not drawn)", "pKi", 8.80],
  ["NC(N)=NC(=O)N1CCc2cccc(-c3cc(F)c(F)cc3F)c2C1", "pKi", 8.44],
  ["NC(N)=NC(=O)N1Cc2c(-c3ccc(F)cc3F)ccc(F)c2C2(CC2)C1", "pKi", 9.07],
  ["NC(N)=NC(=O)N1CCc2c(F)ccc(-c3cc(F)c(F)cc3F)c2C1", "pKi", 8.43],
  ["NC(N)=NC(=O)N1CCc2c(F)ccc(-c3ncc(Cl)cc3F)c2C1", "pKi", 8.37],
  ["NC(N)=NC(=O)N1CCc2c(F)ccc(-c3c(F)cccc3F)c2C1", "pKi", 8.96],
  ["NC(N)=NC(=O)N1CCc2c(Cl)ccc(-c3ccc(F)cc3F)c2C1", "pKi", 8.57],
  ["NC(N)=NC(=O)N1CCc2cccc(-c3ncc(F)cc3F)c2C1", "pKi", 8.38],
  ["NC(N)=NC(=O)N1Cc2c(C3CC3)ccc(F)c2C2(CC2)C1", "pKi", 8.57]
]}

Reference for the values: patent US8962612B2
